Please go through the items and note down their apparent KD of MS2 coat protein.
tested on: MS2 coat protein; test: apparent KD of MS2 coat protein; designed switch direction (-1 OFF switch, 1 ON switch): -1; higher = weaker reporter binding; details: input ligand: none
// units = nM; emit number, no label

Recall and state the measured apparent KD of MS2 coat protein for UUGUGCACGCUGCGGUCCUACAUGAGGAUCACCCAUGUGGUCUGGUGGCGUGGGUCACCGGACUUGGCUCGUCUUGA [salish99_S_TOV1_R5_061] (Eterna round: R97, puzzle: Sensor, turn-off variant 1) .
57.8

Give the value of apparent KD of MS2 coat protein reported for the following: UGUUGUUGCGUAGGAUAUUGCCAACAGGCAGUAGGAUAUGCGAAAGCAGAAGGACCGCCAACAGGCGAGAAGGACGGGACAACU [pwkr exNG2 2xF7 2xFMN.13] (Eterna round: R96, puzzle: Exclusion NG 2)
72.6

Tell me its apparent KD of MS2 coat protein given UCUUAUUGAGGAUAUACAGAUUAUUACAUGAGGAUCACCCAUGUUCUUCAAUGUAUAUAUGUAGAAGGCAGAGGAA [Mat - Exclusion 5 - JL Mod - D11] (Eterna round: R97, puzzle: Exclusion 5) as the entry.
67.4

Hello, please tell me recorded apparent KD of MS2 coat protein for this one: UUUACAAGCUAUUGAUCCCACAUGAGGAUCACCCAUGUUCCUGGCCGUGAGGCUAGGUAAACAAUAGCUCGUCUUAU [Sensor-V1 #41] (Eterna round: R97, puzzle: Sensor, turn-off variant 1)
95.1

FYI, the data here is from the supplement of paper PMC9170038.
